# Tested on: Escherichia coli TOP10;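 further: peptides expressed intracellularly from a pBAD plasmid library in pooled LB shake-flask culture, induced with 0.3% L-arabinose, DNA abundance read by NGS, three biological replicates, DESeq2 with apeglm shrinkage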
# experiment.description: shrunken log2 fold change of peptide-encoding DNA abundance (4.5 h post-induction vs induction); higher = less antimicrobial activity (less host growth inhibition)
# condition.parameters: time post-induction: 4.5 h; library: site-saturation at positions 5, 18, 19, 20
Reported shrunken log2 fold change values follow for various sequences
No unit in the answer, please; the number alone is enough.

- sequence.record: "RRIRLRPPRLPRPRPRPTCSPRP"
  shrunken log2 fold change: -0.0337
- sequence.record: "RRIRNRPPRLPRPRPRPTFVPRP"
  shrunken log2 fold change: -0.185
- sequence.record: "RRIRQRPPRLPRPRPRPIQGPRP"
  shrunken log2 fold change: -0.0863
- sequence.record: "RRIRERPPRLPRPRPRPHKDPRP"
  shrunken log2 fold change: 0.144
- sequence.record: "RRIRSRPPRLPRPRPRPFYKPRP"
  shrunken log2 fold change: -0.426
- sequence.record: "RRIRIRPPRLPRPRPRPPIKPRP"
  shrunken log2 fold change: -0.4
- sequence.record: "RRIRPRPPRLPRPRPRPWQEPRP"
  shrunken log2 fold change: 0.00579
- sequence.record: "RRIRERPPRLPRPRPRPRFQPRP"
  shrunken log2 fold change: 0.2
- sequence.record: "RRIRARPPRLPRPRPRPPIDPRP"
  shrunken log2 fold change: 0.647
- sequence.record: "RRIRKRPPRLPRPRPRPSVEPRP"
  shrunken log2 fold change: 0.0133

[Q] Tell me measured shrunken log2 fold change for RRIRLRPPRLPRPRPRPECPPRP please.
[A] 0.0712

[Q] Tell me measured shrunken log2 fold change for RRIRPRPPRLPRPRPRPLTDPRP please.
[A] 0.111

[Q] Tell me measured shrunken log2 fold change for RRIRQRPPRLPRPRPRPRHAPRP please.
[A] -0.0685
